systemUnderTest: T1, human CSF1R human Fc tagged recombinant protein (human, UniProt P07333 20-517)
T1 construct: also called human CSF1R-Fc
procedureDetails: direct titration ELISA on coated human CSF1R-Fc, IgG4(S228P) format, OD 450 nm
measure: binding result

- binder: "MH14 (antibody, human IgG4, V domains shown, Deimmunized MH5 derivative, human IgG4(S228P)/Ckappa IgG) VH: QVQLVQSGAEVKKPGSSVKVSCKASGYTFSSAYMIWVRQAPGQGLEWMGDINPYNGGANYAQKFQGRVTITADESTSTAYMELSSLRSEDTAVYYCAREGPYFSNLYVMDYWGQGTLVTVSS VL: EIVLTQSPATLSLSPGERATLSCRASQSVSYEGENYLNWYQQKPGQAPRSAIYAASNRATGIPARFSGSGSGTDFTLTISSPEPEDFAVYYCQLSNEDLLTFGGGTKVEIK"
  result: "binds"
